studySystem: T1, CD71 apical domain (UniProt P02786 189-383, limits assumed)
T1 construct: domain: Apical domain
T1 sequence (P02786 189-383 limits assumed): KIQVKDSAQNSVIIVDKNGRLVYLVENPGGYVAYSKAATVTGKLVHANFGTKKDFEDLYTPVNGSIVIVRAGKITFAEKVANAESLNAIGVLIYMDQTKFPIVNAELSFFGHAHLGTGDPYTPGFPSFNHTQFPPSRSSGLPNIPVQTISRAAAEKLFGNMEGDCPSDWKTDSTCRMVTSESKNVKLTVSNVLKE
testProtocol: solution ELISA
parameter: Apical domain, RLU (RLU)

| binder | unitSymbol | Apical domain, RLU |
| --- | --- | --- |
| SEQ ID NO 135 (designed binder, FN3 domain) MLPAPKNLVVSRVTEDSARLSWTAPDAAFDSFYIAYAEPRPDGEAIQLAVPGSERSYDLTGLKPGTEYSVLIHGVKGGLLSSPLHAFFTT | RLU | 6.05e+06 |
| SEQ ID NO 120 (designed binder, FN3 domain) MLPAPKNLVVSRVTEDSARLSWTAPDAAFDSFYIAYAEPRPDGEAIHLSVPGSERSYDLTGLKPGTEYSVLIHGVKGGLLSSPLVAIFTT | RLU | 5.75e+06 |
